# Tested on: systolic blood pressure
# EXPERIMENTAL PROTOCOL: Antihypertensive activity, reduction in systolic blood pressure, single oral medication, unanesthetized spontaneous hypertensive rat
# Assay type: in vivo
# MEASUREMENT CONTEXT: P.O., 50 mg./kg.
Structures can show the parent of a compound that is named as a salt.
VALUE TYPE: Actual reduction in blood pressure observed at the indicated dose (mm. Hg)
One number for each entry, in mm. Hg.

Provide Actual reduction in blood pressure observed at the indicated dose values for the following items, in order.
1. CC(CCc1ccccc1)NCCc1ccc(O)c([S+](C)[O-])c1 (stereo not drawn) [Example 33C]
2. CC(CCc1ccc(O)cc1)NCCc1ccc(O)c([S+](C)[O-])c1 (single isomer, unassigned) [Example 30E, hydrochloride]
3. C[S+]([O-])c1cc(CCNC(C)(C)CCc2ccccc2)ccc1O.Cl (stereo not drawn) [Example 35C]

Given back:
-28
-3
-20

* * *

# EXPERIMENTAL PROTOCOL: 7-day oral LD50 in rats
# Type: in vivo
# MEASUREMENT CONTEXT: rat, in vivo, po, rats; two separate batches
Structures can show the parent of a compound that is named as a salt.
VALUE TYPE: LD50 at 168 h (mg/kg)
Give bare numbers, in mg/kg.

Asked: Report LD50 at 168 h for COc1ccc(CCC(C)NCC(O)c2ccc(O)c([S+](C)[O-])c2)cc1 (stereo not shown) [Example 5E, acetate salt] please.
Given back: 1850

* * *

# Test system: blood pressure
# EXPERIMENTAL PROTOCOL: Antihypertensive activity, sustained lowering of blood pressure, repeated oral medication, unanesthetized trained renal hypertensive dog
# Type: in vivo
# MEASUREMENT CONTEXT: tid., 0.5 mg./kg., hydrochloride
Where a name gives a salt, the structure may show the parent alone.
VALUE TYPE: Actual percentage reduction in blood pressure observed at the indicated dose
State the value, then name its unit.

Below are worked cases with known answers.
INSERT INTO measurements (compound, recorded_value) VALUES
  ('COc1ccc(CCC(C)NCC(O)c2ccc(O)c([S+](C)[O-])c2)cc1 (single isomer, unassigned) [Example 10, hydrochloride]', '8%'),
  ('COc1ccc(CCC(C)NCC(O)c2ccc(O)c([S+](C)[O-])c2)cc1 (single isomer, unassigned) [Example 13C, hydrochloride]', '17%');

Provide Actual percentage reduction in blood pressure observed at the indicated dose values for the following items, in order.
1. COc1ccc(CCC(C)NCC(O)c2ccc(O)c([S+](C)[O-])c2)cc1 (single isomer, unassigned) [Example 11, hydrochloride]
2. COc1ccc(CCC(C)NCC(O)c2ccc(O)c([S+](C)[O-])c2)cc1 (single isomer, unassigned) [Example 12, hydrochloride]

Given back:
1. 14%
2. 14%

* * *

# EXPERIMENTAL PROTOCOL: Acute intravenous and oral toxicity in mice
# Assay type: in vivo
# MEASUREMENT CONTEXT: mouse, in vivo, po
Structures can show the parent of a compound that is named as a salt.
VALUE TYPE: LD50 (mg/kg)
Answers are plain numbers, in mg/kg.

Asked: Report LD50 for COc1ccc(CCC(C)NCC(O)c2ccc(O)c([S+](C)[O-])c2)cc1 (stereo not shown) [Example 2G, acetate salt] please.
Given back: 1500

* * *

# Test system: systolic blood pressure
# EXPERIMENTAL PROTOCOL: Antihypertensive activity, reduction in systolic blood pressure, single oral medication, unanesthetized spontaneous hypertensive rat
# Type: in vivo
# MEASUREMENT CONTEXT: P.O., 50 mg./kg.
Where a name gives a salt, the structure may show the parent alone.
VALUE TYPE: Actual reduction in blood pressure observed at the indicated dose (mm. Hg)
One number for each entry, in mm. Hg.

INSERT INTO measurements (compound, recorded_value) VALUES
  ('COc1ccc(CCC(C)NCC(=O)c2ccc(OC(=O)c3ccccc3)c([S+](C)[O-])c2)cc1 (stereo not shown) [Example 25, hydrochloride]', -12),
  ('COc1cc(CCNCC(O)c2ccc(O)c([S+](C)[O-])c2)cc(OC)c1OC (stereo not shown) [Example 28C, hydrochloride]', -15),
  ('COc1ccc(CCC(C)NCC(O)c2ccc(O)c([S+](C)[O-])c2)cc1 (stereo not shown) [Example 24C, hydrochloride]', -12),
  ('COc1ccc(CCC(C)(C)NCCc2ccc(O)c([S+](C)[O-])c2)cc1 (stereo not shown) [Example 34C, hydrochloride]', -8);

Provide Actual reduction in blood pressure observed at the indicated dose values for the following items, in order.
1. COc1ccc(CCCC(C)(C)NCC(O)c2ccc(O)c([S+](C)[O-])c2)cc1 (stereo not shown) [Example 22D]
2. COc1ccc(CCNCC(O)c2ccc(O)c([S+](C)[O-])c2)cc1OC (stereo not shown) [Example 27C, hydrochloride]
3. CC(CCc1ccc2c(c1)OCO2)NCC(O)c1ccc(O)c([S+](C)[O-])c1 (stereo not shown) [Example 31C, hydrochloride]

Given back:
-12
-26
-54
